Assay Text: log D7.4 determination by shake flask method and ICP-MS
Format: physicochemical
Condition Parameters: n-octanol/phosphate buffer pH 7.4, Pt by ICP-MS

Compound	log D7.4
Cn1cc(CC(NC(=O)[O][Pt]23([O]C(=O)NCCCCCN4C(=O)CCC4=O)([NH]C4CCCCC4[NH]2)[O]C(=O)C(=O)[O]3)C(=O)O)c2ccccc21 (stereo not shown)	–1.49
Cn1cc(C[C@@H](NC(=O)[O][Pt]2([O]C(=O)CCCCCN3C(=O)CCC3=O)[O]C(=O)C(=O)[O]2)C(=O)O)c2ccccc21.N[C@@H]1CCCC[C@H]1N	–2.02
Cn1cc(CC([NH3+])C(=O)[O][Pt]23([O]C(=O)NCCCCCN4C(=O)CCC4=O)([NH]C4CCCCC4[NH]2)[O]C(=O)C(=O)[O]3)c2ccccc21.O=C([O-])C(F)(F)F (stereo not shown)	–0.16
Cn1cc(C[C@@H]([NH3+])C(=O)[O][Pt]2([O]C(=O)CCCCCN3C(=O)CCC3=O)[O]C(=O)C(=O)[O]2)c2ccccc21.N[C@@H]1CCCC[C@H]1N.O=C([O-])C(F)(F)F	–0.30

###

Tested on: murine CT26 colon cancer cells
Assay Text: MTT cytotoxicity assay in CT26 cells
Format: cell-based
Condition Parameters: 48 h incubation, with 5 equiv AA; read-out: CT26 IC50 values +AA, mean ± SD
Exercise: state measured IC50 for each of the molecules provided.
A number alone suffices; assume µM.

Request: Could you tell me which IC50 is on file for Cn1cc(C[C@@H](NC(=O)[O][Pt]2([O]C(=O)CCCCCN3C(=O)CCC3=O)[O]C(=O)C(=O)[O]2)C(=O)O)c2ccccc21.N[C@@H]1CCCC[C@H]1N ?
Response: 26.7

Request: IC50 for Cn1cc(CC(NC(=O)[O][Pt]23([O]C(=O)NCCCCCN4C(=O)CCC4=O)([NH]C4CCCCC4[NH]2)[O]C(=O)C(=O)[O]3)C(=O)O)c2ccccc21 (stereo not drawn) ?
Response: 38.8

Request: Consider the molecule CC(=O)[O][Pt]1([O]C(=O)NCCCCCN2C(=O)CCC2=O)[O]C(=O)C(=O)[O]1.N[C@@H]1CCCC[C@H]1N and give its measured IC50.
Response: 28.2

###

Test system: SKOV3 cancer cells
Assay Text: Long-term cytotoxicity assay (crystal violet) in SKOV3 cells
Assay type: cell-based, human
Condition Parameters: 168 h, crystal violet stain, mean ± SD
Quantity: pIC50
# reply with the number alone; pIC50 is -log10 of concentration in mol/L

Request: Tell me the measured pIC50 of CC(=O)[O][Pt]1([O]C(=O)NCCCCCN2C(=O)CCC2=O)[O]C(=O)C(=O)[O]1.N[C@@H]1CCCC[C@H]1N , please.
Response: 4.53

Request: Which pIC50 value belongs to Cn1cc(C[C@@H]([NH3+])C(=O)[O][Pt]2([O]C(=O)CCCCCN3C(=O)CCC3=O)[O]C(=O)C(=O)[O]2)c2ccccc21.N[C@@H]1CCCC[C@H]1N.O=C([O-])C(F)(F)F ?
Response: 4.71

Request: pIC50 lookup needed for O=C1[O][Pt]2([NH][C@@H]3CCCC[C@H]3[NH]2)[O]C1=O [oxaliplatin, reference compound] , thanks.
Response: 5.21

Request: Using the record for Cn1cc(CC([NH3+])C(=O)[O][Pt]23([O]C(=O)NCCCCCN4C(=O)CCC4=O)([NH]C4CCCCC4[NH]2)[O]C(=O)C(=O)[O]3)c2ccccc21.O=C([O-])C(F)(F)F (stereo not drawn) , report its pIC50.
Response: 4.74

Request: Tell me the measured pIC50 of Cn1cc(CC(NC(=O)[O][Pt]23([O]C(=O)NCCCCCN4C(=O)CCC4=O)([NH]C4CCCCC4[NH]2)[O]C(=O)C(=O)[O]3)C(=O)O)c2ccccc21 (stereo not drawn) , please.
Response: 4.26

Request: Name the reported pIC50 value associated with the molecule Cn1cc(C[C@@H](NC(=O)[O][Pt]2([O]C(=O)CCCCCN3C(=O)CCC3=O)[O]C(=O)C(=O)[O]2)C(=O)O)c2ccccc21.N[C@@H]1CCCC[C@H]1N
Response: 4.27

###

Test system: human embryonic kidney cells (HEK293)
Assay Text: MTT cytotoxicity assay in non-malignant HEK293 cells
Type: cell-based
Condition Parameters: 72 h
Description: The cells were seeded at 3500–6000 cells/well in 96-well plates depending on the proliferation rate of the respective cell line and allowed to recover for 24 h. Subsequently, the cells were treated at indicated concentrations for 48 or 72 h. […] Cell viability was measured by the MTT-based vitality assay (EZ4U; Biomedica, Vienna, Austria), following the manufacturer’s recommendations.
Quantity: pIC50
Hey, just a heads up that pIC50 is the negative log base 10 of the concentration in molar.

Request: Hi! What's the reported pIC50 for CC(=O)[O][Pt]1([O]C(=O)NCCCCCN2C(=O)CCC2=O)[O]C(=O)C(=O)[O]1.N[C@@H]1CCCC[C@H]1N on human embryonic kidney cells (HEK293)?
Response: 4.29

Request: Requested read-out pIC50, target or system human embryonic kidney cells (HEK293), entry O=C1[O][Pt]2([NH][C@@H]3CCCC[C@H]3[NH]2)[O]C1=O [oxaliplatin, reference compound]
Response: 5.68

Request: Notebook: pull reported pIC50 for human embryonic kidney cells (HEK293), entry Cn1cc(C[C@@H](NC(=O)[O][Pt]2([O]C(=O)CCCCCN3C(=O)CCC3=O)[O]C(=O)C(=O)[O]2)C(=O)O)c2ccccc21.N[C@@H]1CCCC[C@H]1N
Response: 4.11

Request: State its pIC50 on human embryonic kidney cells (HEK293): Cn1cc(C[C@@H]([NH3+])C(=O)[O][Pt]2([O]C(=O)CCCCCN3C(=O)CCC3=O)[O]C(=O)C(=O)[O]2)c2ccccc21.N[C@@H]1CCCC[C@H]1N.O=C([O-])C(F)(F)F
Response: 4.35

Request: Find pIC50 (human embryonic kidney cells (HEK293)) for the entry Cn1cc(CC(NC(=O)[O][Pt]23([O]C(=O)NCCCCCN4C(=O)CCC4=O)([NH]C4CCCCC4[NH]2)[O]C(=O)C(=O)[O]3)C(=O)O)c2ccccc21 (stereo not shown)
Response: 4.09

Request: What value of pIC50 on human embryonic kidney cells (HEK293) does CC(=O)[O][Pt]1([O]C(C)=O)[O]C(=O)C(=O)[O]1.N[C@@H]1CCCC[C@H]1N [OAc/OAc, reference compound] have?
Response: 4.91

Request: Any idea what pIC50 came out for Cn1cc(CC([NH3+])C(=O)[O][Pt]23([O]C(=O)NCCCCCN4C(=O)CCC4=O)([NH]C4CCCCC4[NH]2)[O]C(=O)C(=O)[O]3)c2ccccc21.O=C([O-])C(F)(F)F (stereo not shown) on human embryonic kidney cells (HEK293)?
Response: 4.48

###

Tested on: human HCT116 colon cancer cells
Assay Text: MTT cytotoxicity assay in HCT116 cells
Assay type: cell-based
Condition Parameters: 48 h incubation, with 5 equiv AA; read-out: HCT116 IC50 values +AA, mean ± SD
Would you kindly list pIC50 for each of these compounds?
Scale note: pIC50 = -log10(concentration in M).

Request: Could you tell me which pIC50 is on file for CC(=O)[O][Pt]1([O]C(C)=O)[O]C(=O)C(=O)[O]1.N[C@@H]1CCCC[C@H]1N [OAc/OAc, reference compound] ?
Response: 4.70

Request: Field request: pIC50 | item: Cn1cc(C[C@@H]([NH3+])C(=O)[O][Pt]2([O]C(=O)CCCCCN3C(=O)CCC3=O)[O]C(=O)C(=O)[O]2)c2ccccc21.N[C@@H]1CCCC[C@H]1N.O=C([O-])C(F)(F)F
Response: 5.16

Request: Given Cn1cc(C[C@@H](NC(=O)[O][Pt]2([O]C(=O)CCCCCN3C(=O)CCC3=O)[O]C(=O)C(=O)[O]2)C(=O)O)c2ccccc21.N[C@@H]1CCCC[C@H]1N , state its recorded pIC50.
Response: 4.45

Request: What does the data say about its pIC50? Entry: Cn1cc(CC(NC(=O)[O][Pt]23([O]C(=O)NCCCCCN4C(=O)CCC4=O)([NH]C4CCCCC4[NH]2)[O]C(=O)C(=O)[O]3)C(=O)O)c2ccccc21 (stereo not shown)
Response: 4.36

Request: Suppose we examine the compound Cn1cc(CC([NH3+])C(=O)[O][Pt]23([O]C(=O)NCCCCCN4C(=O)CCC4=O)([NH]C4CCCCC4[NH]2)[O]C(=O)C(=O)[O]3)c2ccccc21.O=C([O-])C(F)(F)F (stereo not shown) ; what pIC50 value has been reported?
Response: 5.13

Request: Could you share which pIC50 value was measured for O=C1[O][Pt]2([NH][C@@H]3CCCC[C@H]3[NH]2)[O]C1=O [oxaliplatin, reference compound] ?
Response: 6.17

Request: So what's the measured pIC50 for this one? CC(=O)[O][Pt]1([O]C(=O)NCCCCCN2C(=O)CCC2=O)[O]C(=O)C(=O)[O]1.N[C@@H]1CCCC[C@H]1N
Response: 4.47
